Assign ΔR/DRAΔ2 POA to each entry below.
assay-name: Probe fluorescence ratio response to palmitoleic acid relative to ADIFAB2
Format: binding
run-parameters: Table 5
Lab note: jot the number down without any unit.

Qu. What value of ΔR/DRAΔ2 POA has been reported for the following molecule? L2P16A3: FABP probe, substitutions M18I G31L A73G vs SEQ ID NO: 2 (protein, listed as Rattus norvegicus, PEPTIDE (1)...(131) wild-type rat intestinal fatty acid binding protein) AFDGTWKVDRNENYEKFIEKMGINVVKRKLLAHDNLKLTITQEGNKFTVKESSNFRNIDVVFELGVDFAYSLGDGTELTGTWTMEGNKLVGKFKRVDNGKELIAVREISGNELIQTYTYEGVEAKRIFKKE
Ans. 1.4

Qu. What ΔR/DRAΔ2 POA value was documented for this molecule, L2P1E6: FABP probe, substitutions M18L A73L vs SEQ ID NO: 2 (protein, listed as Rattus norvegicus, PEPTIDE (1)...(131) wild-type rat intestinal fatty acid binding protein) AFDGTWKVDRNENYEKFLEKMGINVVKRKLGAHDNLKLTITQEGNKFTVKESSNFRNIDVVFELGVDFAYSLLDGTELTGTWTMEGNKLVGKFKRVDNGKELIAVREISGNELIQTYTYEGVEAKRIFKKE ?
Ans. 0.1
